testTarget: 3',5'-cyclic-AMP phosphodiesterase 4B (Homo sapiens, UniProt Q07343)
Sequence (Q07343 whole entry): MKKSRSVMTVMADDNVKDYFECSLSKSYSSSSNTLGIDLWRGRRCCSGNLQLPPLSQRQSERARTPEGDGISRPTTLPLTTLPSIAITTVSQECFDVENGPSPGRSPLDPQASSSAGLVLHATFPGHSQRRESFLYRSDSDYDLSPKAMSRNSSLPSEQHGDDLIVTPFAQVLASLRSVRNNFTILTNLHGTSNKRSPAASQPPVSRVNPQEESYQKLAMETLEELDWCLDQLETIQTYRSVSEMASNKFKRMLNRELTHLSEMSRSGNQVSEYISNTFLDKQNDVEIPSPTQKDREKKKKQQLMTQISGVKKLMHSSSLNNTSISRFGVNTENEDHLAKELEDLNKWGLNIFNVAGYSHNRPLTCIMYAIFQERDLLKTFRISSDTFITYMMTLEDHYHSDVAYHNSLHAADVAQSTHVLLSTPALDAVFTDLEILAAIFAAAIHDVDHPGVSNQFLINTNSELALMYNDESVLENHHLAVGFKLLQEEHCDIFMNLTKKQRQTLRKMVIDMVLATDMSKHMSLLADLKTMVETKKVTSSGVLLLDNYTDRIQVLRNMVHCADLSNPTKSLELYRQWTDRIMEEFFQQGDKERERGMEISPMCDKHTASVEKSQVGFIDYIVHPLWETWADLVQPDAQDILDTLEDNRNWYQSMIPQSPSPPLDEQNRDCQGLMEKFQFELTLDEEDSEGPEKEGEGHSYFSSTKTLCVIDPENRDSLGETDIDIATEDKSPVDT
assayName: Inhibition of recombinant human PDE4B using […] as substrate measured after 90 mins by colorimetric assay
Entries and their measured IC50 follow.
Output spec: scalar in µM, unitless text.

- querySmiles: "COc1ccc(-c2nc(C)c(C(=O)CSc3nc(-c4ccc(OC)c(OC)c4)c(C#N)c(=O)[nH]3)s2)cc1"
  endpointResult: 17.1
- querySmiles: "COc1ccc(-c2nc(C)c(C(=O)CSc3nc(N)c(C#N)c(-c4ccc(OC)cc4)n3)s2)cc1"
  endpointResult: 3.15

Consider the record given below.
input: Supply IC50 value. Item: `COc1ccc(-c2nc(C)c(C(=O)CSc3nc(N)c(C#N)c(-c4ccccc4)n3)s2)cc1`
output: 11.2

====

System: U-87 MG
assayName: Antiproliferative activity against human U-87 MG cells assessed as cell viability at 5 uM measured after 24 to 48 hrs by MTT assay relative to control
Type: functional, U-87MG ATCC
measurementSetup: time 24-48 hrs, read-out: Activity
Binary call on viability at 5 µM with cut-off 90%: strictly below means TRUE, and equality or higher means FALSE.

Answered cases to consult:
- querySmiles: "Cc1nc(-c2ccc(Cl)cc2)sc1C(=O)CSc1nc(-c2ccc(Cl)cc2)c(C#N)c(=O)[nH]1"
  testTarget: "U-87 MG"
  groupLabel: "FALSE"
- querySmiles: "Cc1nc(-c2ccccc2)sc1C(=O)CSc1nc(-c2ccc3c(c2)OCO3)c(C#N)c(=O)[nH]1"
  testTarget: "U-87 MG"
  groupLabel: "FALSE"
- querySmiles: "COc1ccc(-c2nc(C)c(C(=O)CSc3nc(-c4cccc(OC)c4)c(C#N)c(=O)[nH]3)s2)cc1"
  testTarget: "U-87 MG"
  groupLabel: "TRUE"

input: Please check: viability at 5 µM for `Cc1nc(-c2ccc(Cl)cc2)sc1C(=O)CSc1nc(N)c(C#N)c(-c2ccc(Cl)cc2)n1` , strictly under 90% or not?
output: TRUE

input: Please check: viability at 5 µM for `Cc1nc(-c2ccc(Cl)cc2)sc1C(=O)CSc1nc(-c2ccc3c(c2)OCO3)c(C#N)c(=O)[nH]1` , strictly under 90% or not?
output: FALSE

input: Please check: viability at 5 µM for `COc1cccc(-c2nc(SCC(=O)c3sc(-c4ccccc4)nc3C)[nH]c(=O)c2C#N)c1` , strictly under 90% or not?
output: FALSE

input: Please check: viability at 5 µM for `Cc1nc(-c2ccccc2)sc1C(=O)CSc1nc(-c2ccc(Cl)c(Cl)c2)c(C#N)c(=O)[nH]1` , strictly under 90% or not?
output: FALSE

input: Please check: viability at 5 µM for `COc1ccc(-c2nc(C)c(C(=O)CSc3nc(-c4ccc(Cl)cc4)c(C#N)c(=O)[nH]3)s2)cc1` , strictly under 90% or not?
output: FALSE

====

Test system: U-87 MG
assayName: Antiproliferative activity against human U-87 MG cells assessed as cell viability at 5 uM measured after 24 to 48 hrs by MTT assay relative to control
Format: functional, U-87MG ATCC
measurementSetup: time 24-48 hrs, read-out: Activity
Binary call on viability at 5 µM with cut-off 80%: strictly below means y, and equality or higher means n.

- querySmiles: "COc1ccc(-c2nc(C)c(C(=O)CSc3nc(-c4ccccc4)c(C#N)c(=O)[nH]3)s2)cc1"
  groupLabel: "n"
- querySmiles: "Cc1nc(-c2ccc(Cl)cc2)sc1C(=O)CSc1nc(N)c(C#N)c(-c2ccccc2)n1"
  groupLabel: "y"
- querySmiles: "COc1ccc(-c2nc(C)c(C(=O)CSc3nc(N)c(C#N)c(-c4ccc(OC)cc4)n3)s2)cc1"
  groupLabel: "y"
- querySmiles: "COc1ccc(-c2nc(SCC(=O)c3sc(-c4ccc(Cl)cc4)nc3C)[nH]c(=O)c2C#N)cc1OC"
  groupLabel: "n"
- querySmiles: "COc1ccc(-c2nc(C)c(C(=O)CSc3nc(-c4ccc(OC)cc4)c(C#N)c(=O)[nH]3)s2)cc1"
  groupLabel: "n"

input: Please check: viability at 5 µM for `Cc1nc(-c2ccccc2)sc1C(=O)CSc1nc(-c2ccccc2)c(C#N)c(=O)[nH]1` , strictly under 80% or not?
output: n

input: Please check: viability at 5 µM for `COc1ccc(-c2nc(SCC(=O)c3sc(-c4ccccc4)nc3C)nc(N)c2C#N)cc1` , strictly under 80% or not?
output: y
